molecular target: HLA-A*01:01; assay: IEDB peptide-MHC binding, purified MHC/competitive/fluorescence; filed as Kd, often an IC50 or EC50 that approximates it; bounds were set here for any values at or beyond the usual limits of such assays; conditions: source organism: Salmonella enterica subsp. enterica serovar Typhi
pKd: −log10 of the molar value.
QUANTITY: pKd

Endpoint output: pKd of `SVIDHIHYM` . Value?
≤ 4.70

###

target: HLA-B*44:02; test: IEDB peptide-MHC binding, purified MHC/direct/fluorescence; filed as Kd, often an IC50 or EC50 that approximates it; bounds were set here for any values at or beyond the usual limits of such assays; conditions: source organism: Influenza A virus (A/camel/Mongolia/1982(H1N1))
pKd: −log10 of the molar value.
QUANTITY: pKd

Param readout = pKd; param system = HLA-B*44:02; param query = `KFFPSSSYR` ; response: value
≤ 4.70
